measurement_protocol: Co-solvent solution formulation solubility matrix
Assay type: physicochemical
cond: aqueous with cosolvent or surfactant or cyclodextrin; Trial 6: 10% PPG, 90% PBS; read-out: R788 Solubility
measured_attribute: solubility

1. COc1cc(Nc2ncc(F)c(Nc3ccc4c(n3)N(COP(=O)(O)O)C(=O)C(C)(C)O4)n2)cc(OC)c1OC [R788]
1130 µM
